Test system: PPARg:RXRa 90nM:30nM, anti-RXR (NR concentration 90 nM, RXRa partner concentration 30 nM)
test_protocol: PBM binding z-score (relative to random genomic background probes); higher = stronger binding; sequences stand for … in GC…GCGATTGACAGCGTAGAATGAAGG

>  <chain>
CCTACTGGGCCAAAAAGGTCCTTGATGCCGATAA

>  <PBM binding z-score>
0.211

$$$$
>  <chain>
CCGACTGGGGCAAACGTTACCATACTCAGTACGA

>  <PBM binding z-score>
4.25

$$$$
>  <chain>
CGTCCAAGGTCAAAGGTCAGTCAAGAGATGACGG

>  <PBM binding z-score>
9.18

$$$$
>  <chain>
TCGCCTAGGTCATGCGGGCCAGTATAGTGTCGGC

>  <PBM binding z-score>
1.71

$$$$
>  <chain>
ATCTCTAGGTAAAAGTTCAGTGACTCCCGAGGAT

>  <PBM binding z-score>
8.98

$$$$
>  <chain>
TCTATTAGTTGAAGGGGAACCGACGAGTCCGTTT

>  <PBM binding z-score>
3.48

$$$$
>  <chain>
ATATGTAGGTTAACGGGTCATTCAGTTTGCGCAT

>  <PBM binding z-score>
6.25

$$$$
>  <chain>
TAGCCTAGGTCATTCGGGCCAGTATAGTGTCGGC

>  <PBM binding z-score>
1.26

$$$$
>  <chain>
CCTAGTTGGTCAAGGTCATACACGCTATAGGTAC

>  <PBM binding z-score>
2.74

$$$$
>  <chain>
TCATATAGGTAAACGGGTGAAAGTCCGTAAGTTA

>  <PBM binding z-score>
3.68

$$$$
>  <chain>
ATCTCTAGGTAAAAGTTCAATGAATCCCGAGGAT

>  <PBM binding z-score>
9.69

$$$$
>  <chain>
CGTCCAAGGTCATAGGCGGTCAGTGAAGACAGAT

>  <PBM binding z-score>
3.6

$$$$
>  <chain>
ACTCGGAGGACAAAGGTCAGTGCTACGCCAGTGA

>  <PBM binding z-score>
7.31

$$$$
>  <chain>
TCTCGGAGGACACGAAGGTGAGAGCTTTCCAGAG

>  <PBM binding z-score>
0.958

$$$$
>  <chain>
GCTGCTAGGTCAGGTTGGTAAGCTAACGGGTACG

>  <PBM binding z-score>
0.338

$$$$
>  <chain>
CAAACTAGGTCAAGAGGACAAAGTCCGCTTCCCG

>  <PBM binding z-score>
6.62

$$$$
>  <chain>
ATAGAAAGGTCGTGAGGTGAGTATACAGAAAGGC

>  <PBM binding z-score>
3.57

$$$$
>  <chain>
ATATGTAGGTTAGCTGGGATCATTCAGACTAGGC

>  <PBM binding z-score>
1.85

$$$$
>  <chain>
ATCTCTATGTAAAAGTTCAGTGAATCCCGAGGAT

>  <PBM binding z-score>
4.95

$$$$
>  <chain>
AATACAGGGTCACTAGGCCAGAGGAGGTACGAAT

>  <PBM binding z-score>
5.65

$$$$
>  <chain>
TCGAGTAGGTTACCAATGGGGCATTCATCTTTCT

>  <PBM binding z-score>
1.18

$$$$
>  <chain>
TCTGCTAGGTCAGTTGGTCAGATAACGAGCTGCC

>  <PBM binding z-score>
1.68

$$$$
>  <chain>
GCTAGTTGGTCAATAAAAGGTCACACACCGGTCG

>  <PBM binding z-score>
2.9

$$$$
>  <chain>
TGAATGAGGTTATAAGATCCGGGAACGTTGCAAA

>  <PBM binding z-score>
1.15

$$$$
>  <chain>
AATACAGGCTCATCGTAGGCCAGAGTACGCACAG

>  <PBM binding z-score>
-0.254

$$$$
>  <chain>
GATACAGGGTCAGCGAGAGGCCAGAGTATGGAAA

>  <PBM binding z-score>
2.38

$$$$
>  <chain>
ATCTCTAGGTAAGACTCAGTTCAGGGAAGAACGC

>  <PBM binding z-score>
0.289

$$$$
>  <chain>
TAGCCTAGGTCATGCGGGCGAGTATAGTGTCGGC

>  <PBM binding z-score>
1.37

$$$$
>  <chain>
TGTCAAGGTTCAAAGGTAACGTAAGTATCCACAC

>  <PBM binding z-score>
5.92

$$$$
>  <chain>
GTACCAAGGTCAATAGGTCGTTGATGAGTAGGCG

>  <PBM binding z-score>
4.13

$$$$
>  <chain>
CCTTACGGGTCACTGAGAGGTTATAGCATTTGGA

>  <PBM binding z-score>
3.68

$$$$
>  <chain>
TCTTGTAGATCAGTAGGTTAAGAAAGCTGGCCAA

>  <PBM binding z-score>
2.31

$$$$
>  <chain>
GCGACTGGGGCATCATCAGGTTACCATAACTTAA

>  <PBM binding z-score>
0.381

$$$$
>  <chain>
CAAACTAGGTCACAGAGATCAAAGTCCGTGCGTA

>  <PBM binding z-score>
7.3

$$$$
>  <chain>
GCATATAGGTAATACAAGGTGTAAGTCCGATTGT

>  <PBM binding z-score>
0.179

$$$$
>  <chain>
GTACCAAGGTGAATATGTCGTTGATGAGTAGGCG

>  <PBM binding z-score>
0.185

$$$$
>  <chain>
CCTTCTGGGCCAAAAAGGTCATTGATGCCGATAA

>  <PBM binding z-score>
2.59

$$$$
>  <chain>
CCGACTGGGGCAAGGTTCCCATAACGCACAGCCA

>  <PBM binding z-score>
3.38

$$$$
>  <chain>
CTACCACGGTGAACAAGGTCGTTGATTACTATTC

>  <PBM binding z-score>
0.141

$$$$
>  <chain>
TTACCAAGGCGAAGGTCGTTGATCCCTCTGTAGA

>  <PBM binding z-score>
5.86

$$$$
>  <chain>
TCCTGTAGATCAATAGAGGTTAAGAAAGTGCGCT

>  <PBM binding z-score>
2.39

$$$$
>  <chain>
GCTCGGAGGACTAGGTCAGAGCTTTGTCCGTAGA

>  <PBM binding z-score>
0.269

$$$$
>  <chain>
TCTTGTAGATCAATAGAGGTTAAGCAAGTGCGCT

>  <PBM binding z-score>
2.4

$$$$
>  <chain>
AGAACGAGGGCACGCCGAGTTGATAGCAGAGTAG

>  <PBM binding z-score>
0.871

$$$$
>  <chain>
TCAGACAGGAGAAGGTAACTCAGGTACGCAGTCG

>  <PBM binding z-score>
2.69

$$$$
>  <chain>
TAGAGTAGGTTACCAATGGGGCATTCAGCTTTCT

>  <PBM binding z-score>
1.72

$$$$
>  <chain>
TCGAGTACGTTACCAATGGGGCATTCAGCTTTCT

>  <PBM binding z-score>
0.788

$$$$
>  <chain>
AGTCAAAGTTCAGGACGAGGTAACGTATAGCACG

>  <PBM binding z-score>
4.27

$$$$
>  <chain>
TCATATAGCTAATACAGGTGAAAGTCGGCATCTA

>  <PBM binding z-score>
2.35

$$$$
>  <chain>
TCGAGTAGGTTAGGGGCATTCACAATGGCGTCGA

>  <PBM binding z-score>
1.94

$$$$
>  <chain>
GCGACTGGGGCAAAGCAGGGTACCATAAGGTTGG

>  <PBM binding z-score>
0.227

$$$$
